// provenance: BindingDB's records for doi:10.1016/j.bmcl.2016.12.066

Reported pIC50 values for a set of compounds
- System under test: UniProtKB P13726
- Sequence (P13726 whole entry): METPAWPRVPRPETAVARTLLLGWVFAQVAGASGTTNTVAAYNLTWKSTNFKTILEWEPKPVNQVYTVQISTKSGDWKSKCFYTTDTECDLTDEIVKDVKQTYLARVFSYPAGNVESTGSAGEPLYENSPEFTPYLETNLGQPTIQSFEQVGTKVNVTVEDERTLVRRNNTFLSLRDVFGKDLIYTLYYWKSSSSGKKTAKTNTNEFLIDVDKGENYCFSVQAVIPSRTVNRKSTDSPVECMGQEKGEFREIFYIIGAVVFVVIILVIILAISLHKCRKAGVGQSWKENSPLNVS
- Procedure summary: ChEBML_1654816
Note on pIC50: it is the negative log10 of concentration, concentration in mol/L.

Solved entries (count: 5):
compound="CC1(C)CC[C@]2(C(=O)O[C@@H]3O[C@H](CO)[C@@H](O)[C@H](O)[C@H]3O)CC[C@]3(C)C(=CC[C@@H]4[C@@]5(C)CC[C@H](O)[C@@](C)(CO)[C@@H]5CC[C@]43C)[C@@H]2C1 [CHEBI:67947]" observable=pIC50 numeric_readout=9.55
compound="CC1(C)CC[C@]2(C(=O)O)CC[C@]3(C)C(=CC[C@@H]4[C@@]5(C)CC[C@H](O[C@@H]6O[C@H](CO)[C@@H](O)[C@H](O)[C@H]6O)C(C)(C)[C@@H]5CC[C@]43C)[C@@H]2C1 [Vitalboside A]" observable=pIC50 numeric_readout=10.02
compound="COc1cc(/C=C/C(=O)CC(=O)/C=C/c2ccc(O)c(OC)c2)ccc1O [CHEBI:3962]" observable=pIC50 numeric_readout=7.89
compound="C=C(C)[C@@H]1CC[C@]2(C(=O)O[C@@H]3O[C@H](CO)[C@@H](O)[C@H](O)[C@H]3O)CC[C@]3(C)C(CC[C@@H]4[C@@]5(C)CC[C@H](O[C@@H]6O[C@H](CO)[C@@H](O)[C@H](O)[C@H]6O)C(C)(C)[C@@H]5CC[C@]43C)[C@H]12 (stereo partly specified)" observable=pIC50 numeric_readout=9.19
compound="CC1(C)CC[C@]2(C(=O)O)[C@H](O)C[C@]3(C)C(=CC[C@@H]4[C@@]5(C)CC[C@H](O)C(C)(C)[C@@H]5CC[C@]43C)[C@@H]2C1 [CHEBI:4747]" observable=pIC50 numeric_readout=10.27

Next item in the queue.
# lookup: pIC50 of `CC1(C)CC[C@]2(C(=O)O[C@@H]3O[C@H](CO)[C@@H](O)[C@H](O)[C@H]3O)[C@H](O)C[C@]3(C)C(=CC[C@@H]4[C@@]5(C)CC[C@H](O)[C@](C)(CO)[C@@H]5CC[C@]43C)[C@@H]2C1`
9.10
